// data source = patent US10407422B2

Biological target: myeloperoxidase (MPO) (Homo sapiens (Human))
Experiment: MPO peroxidation assay (Amplex Red assay)
Format: biochemical
Conditions: potency range class
pIC50: −log10 of the molar value.
Some molecules, each annotated with its measured pIC50.

These solved cases illustrate the format of a correct answer.
Nc1cc(Cc2cnn(Cc3cccc(CN4CCCC4)c3)c2)c2nn[nH]c2n1 :: 7.00 to 9.00
Nc1cc(Cc2cnn(C(CO)c3ccccc3)c2)c2nn[nH]c2n1 (stereo not drawn) :: 6.00 to 7.00
Nc1cc(Cc2cnn(Cc3ccc4c(c3)OCCO4)c2)c2nn[nH]c2n1 :: 7.00 to 9.00
Nc1cc(Cc2cnn(Cc3ccc4c(c3)CCNC4)c2)c2nn[nH]c2n1 :: 7.00 to 9.00
Nc1cc(Cc2cnn(-c3cccc(COc4ccccc4)c3)c2)c2nn[nH]c2n1 :: 7.00 to 9.00

Query: # input molecule: CC1CC(c2cccc(Cn3cc(Cc4cc(N)nc5[nH]nnc45)cn3)c2)CCN1 (stereo not drawn) ; wanted: its pIC50
Response: 7.00 to 9.00

###

Target: myeloperoxidase (MPO) (Homo sapiens (Human), UniProt P05164)
Sequence (P05164 49-745): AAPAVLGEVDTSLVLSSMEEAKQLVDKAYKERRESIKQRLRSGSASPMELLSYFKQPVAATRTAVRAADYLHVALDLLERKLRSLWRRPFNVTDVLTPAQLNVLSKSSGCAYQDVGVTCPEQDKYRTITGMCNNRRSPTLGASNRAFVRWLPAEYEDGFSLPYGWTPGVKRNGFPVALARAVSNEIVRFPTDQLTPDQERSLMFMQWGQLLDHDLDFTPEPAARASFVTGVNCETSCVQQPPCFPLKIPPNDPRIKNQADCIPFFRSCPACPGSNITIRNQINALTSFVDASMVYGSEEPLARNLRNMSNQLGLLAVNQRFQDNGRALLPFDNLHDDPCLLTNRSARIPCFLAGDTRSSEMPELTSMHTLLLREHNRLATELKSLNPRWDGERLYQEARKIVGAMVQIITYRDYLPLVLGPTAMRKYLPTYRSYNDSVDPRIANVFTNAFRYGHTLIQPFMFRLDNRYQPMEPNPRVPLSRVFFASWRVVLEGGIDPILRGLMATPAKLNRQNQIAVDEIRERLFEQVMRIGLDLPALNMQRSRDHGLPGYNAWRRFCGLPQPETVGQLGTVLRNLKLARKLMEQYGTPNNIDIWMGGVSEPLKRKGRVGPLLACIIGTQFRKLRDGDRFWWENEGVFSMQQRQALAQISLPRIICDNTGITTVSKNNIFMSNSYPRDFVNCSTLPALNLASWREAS
Test: MPO peroxidation assay (Amplex Red assay)
Assay type: biochemical
Conditions: potency range class
Parameter: IC50

Query: Query the reported IC50 for myeloperoxidase (MPO) (Homo sapiens (Human), UniProt P05164); item: CS(=O)(=O)c1ccc(Cn2cc(Cc3cc(N)nc4[nH]nnc34)cn2)cc1
Response: 101 to 999 nM

###

Target: UniProt P05164
Assay: MPO peroxidation assay (Amplex Red assay)
Type: biochemical
Settings: potency range class
pIC50: −log10 of the molar value.
Parameter: pIC50

These solved cases illustrate the format of a correct answer.
Nc1cc(Cc2cnn(Cc3cccc(N4CCNCC4Cc4ccccc4)c3)c2)c2nn[nH]c2n1 (centres unmarked) :: 6.00 to 7.00
CCCC1C[C@@H](c2cccc(Cn3cc(Cc4cc(N)nc5[nH]nnc45)cn3)c2)CN1 (some centres unmarked) :: 7.00 to 9.00
Nc1cc(Cc2cnn(Cc3cccc(CC4CCNCC4)c3)c2)c2nn[nH]c2n1 :: 7.00 to 9.00
CN1CCN(c2ccc(Cn3cc(Cc4cc(N)nc5[nH]nnc45)cn3)cc2)CC1 :: 7.00 to 9.00

Query: Query the reported pIC50 for UniProt P05164; item: Nc1cc(Cc2cnn(Cc3ccc(Cn4ccnc4)cc3)c2)c2nn[nH]c2n1
Response: 7.00 to 9.00

Query: Same again, this time with Nc1cc(Cc2cnn(Cc3cccc4ccccc34)c2)c2nn[nH]c2n1
Response: 7.00 to 9.00

Query: Same again, this time with Nc1cc(Cn2nnc3ccccc32)c2nn[nH]c2n1
Response: 7.00 to 9.00

Query: Same again, this time with Nc1cc(Cc2cn(Cc3ccccc3)nc2C(F)(F)F)c2nn[nH]c2n1
Response: 5.00 to 6.00

###

Biological target: UniProt P05164
Assay: MPO chlorination assay (APF assay)
Type: biochemical
Settings: potency range class
pIC50: −log10 of the molar value.
Parameter: pIC50

Nc1cc(Cc2cnn(Cc3ccc(C(=O)NCc4ccncc4)cc3)c2)c2nn[nH]c2n1 [Example 86] :: 6.00 to 7.00
Nc1cc(Cc2cnn(Cc3cccc(-c4cnoc4)c3)c2)c2nn[nH]c2n1 [Example 157] :: 6.00 to 7.00
Nc1cc(Cc2cnn(-c3ccc(F)cc3)c2)c2nn[nH]c2n1 [Example 1] :: 7.00 to 9.00

Query: # input compound: Nc1cc(Cn2nnc3c(Cl)cccc32)c2nn[nH]c2n1 [Example 166] ; wanted: its pIC50
Response: 5.00 to 6.00

Query: Same again, this time with CN(C)CCOc1ccc2cc(Cn3cc(Cc4cc(N)nc5[nH]nnc45)cn3)ccc2c1 [Example 69]
Response: 7.00 to 9.00
